- Test system: A549/ATCC NSCLC
- ASSAY_COMMENT: NCI-60 one-dose screen, 48 h (100 = growth as untreated, 0 = no growth, -100 = all killed)
- REPORTED_CONDITIONS: 10 µM
About 83,000 compounds went through this panel and 20% of them were active in at least one assay; those are over-represented in the sample as a whole.
Label yes when growth is strictly below 30%; otherwise label no.

Worked set:
>  <CPD_SMILES>
O=C(Nc1ccc(OCc2ccccc2)cc1)Nc1ccc(Cl)c(C(F)(F)F)c1

>  <MEASUREMENT_TARGET>
A549/ATCC NSCLC

>  <CLASS_LABEL>
yes

$$$$
>  <CPD_SMILES>
CN1CCN(c2ccc(C(=O)/C=C/c3cc(Br)ccc3F)cc2)CC1

>  <MEASUREMENT_TARGET>
A549/ATCC NSCLC

>  <CLASS_LABEL>
yes

$$$$
>  <CPD_SMILES>
CONC[C@]1(C)C=C2C(=O)[C@](C)(O)C3(CC3)C(C)=C2[C@H]1O

>  <MEASUREMENT_TARGET>
A549/ATCC NSCLC

>  <CLASS_LABEL>
yes

$$$$
>  <CPD_SMILES>
CN(C(=O)c1ccc(C(C)(C)C)cc1)c1sc2c(c1C#N)CCC(=O)C2

>  <MEASUREMENT_TARGET>
A549/ATCC NSCLC

>  <CLASS_LABEL>
no

$$$$

Please turn your attention to the following entry.
Does the reported growth of Cc1ccn2c(C(=O)c3ccccc3)cc(-c3cc(-c4ccc(N(C)C)cc4)c(C#N)c(N)n3)c2c1 stay below 30%?
no

###

- Test system: SW-620 colon
- ASSAY_COMMENT: NCI-60 one-dose screen, 48 h
- REPORTED_CONDITIONS: 10 µM
Compounds without any hit were thinned out: in the full panel of roughly 83,000, 20% have a hit. The source made the active and inactive calls. How the source made its calls: active means growth percent below 10; inactive means the rest.
API: response.call in active, inactive

Past entries and their recorded results:
>  <COMPOUND>
Brc1ccc(N/N=C/c2c[nH]c3ccccc23)nc1

>  <CLASS_LABEL>
inactive

$$$$
>  <COMPOUND>
CC(=O)NCC1=C(C)C=C2C(=O)[C@](C)(O)C3(CC3)C(C)=C21

>  <CLASS_LABEL>
inactive

$$$$
>  <COMPOUND>
O=C(c1ccc(Cl)cc1)C1[C@H](c2ccc(Br)cc2)[C@@H](c2ccccc2)NC12C(=O)Nc1ccccc12 (some centres not stated)

>  <CLASS_LABEL>
active

$$$$
>  <COMPOUND>
C=C1CCC2C3(C)COC(c4cccc(F)c4)OC3CCC2(C)C1CC(O)C1=CCOC1=O (configuration not stated)

>  <CLASS_LABEL>
active

$$$$
>  <COMPOUND>
Nc1nc(Nc2ccc(Cl)cc2)n(Cc2cccc(Br)c2)n1

>  <CLASS_LABEL>
active

$$$$
>  <COMPOUND>
O=C(c1ccc(Cl)cc1)C1[C@H](c2ccccc2Br)[C@@H](c2ccccc2)NC12C(=O)Nc1ccc(Br)cc12 (some centres not stated)

>  <CLASS_LABEL>
active

$$$$
>  <COMPOUND>
CONC[C@]1(C)C=C2C(=O)[C@](C)(O)C3(CC3)C(C)=C2[C@H]1O

>  <CLASS_LABEL>
active

$$$$
>  <COMPOUND>
N#Cc1ccc(-c2nn(-c3ccc(C(=O)O)cc3)cc2CNc2cccc(Br)c2)cc1

>  <CLASS_LABEL>
inactive

$$$$
>  <COMPOUND>
CN1CCN(Cc2ccc(C(=O)Nc3cccc(Nc4ccc5c(O)cccc5n4)c3)cc2C(F)(F)F)CC1

>  <CLASS_LABEL>
active

$$$$
>  <COMPOUND>
COc1ccc(-c2ccc(SCC(=O)Nc3ccc(C#N)cc3)nn2)cc1

>  <CLASS_LABEL>
inactive

$$$$

Please let me know the test result on file for Cc1nc2c(cnn2-c2ccccc2)c(=O)n1-c1ccc(NC(=O)c2ccc(F)cc2)cc1 .
inactive

Quick one: O=C(CSc1nnc(-c2c[nH]c3ccccc23)n1-c1ccccc1)Nc1ccc(C(=O)/C=C/c2cccc([N+](=O)[O-])c2)cc1
inactive

Field entry: O=C(c1ccc(O)cc1)C1[C@H](c2ccccc2Br)[C@@H](c2ccccc2)NC12C(=O)Nc1ccc(Cl)cc12 (some centres not stated)
active

# iterate: N#Cc1c(NC(=O)c2cccc(C(F)(F)F)c2)sc2c1CCC(O)=C2
inactive

Request: C=C(C)[C@@H]1CC[C@]2(C(=O)OC)CC[C@]3(C)[C@H](CC[C@@H]4[C@@]5(C)CC[C@H](N)C(C)(C)[C@@H]5CC[C@]43C)[C@@H]12
active
